I'd be grateful if you could share measured IC50 for these entries.
# experimental-target: human IK (Homo sapiens (Human), UniProt O15554)
# test-description: Inhibition of IK channels expressed in HEK293 cells, thallium (I) sensitive FLIPR assay
# Assay type: cell-based
# condition-details: HEK293 cells over-expressing human IK; Tl+-sensitive BTC fluorescence (FLIPR); inhibition of activity induced by Ca2+-ionophore A23187
Provide the measurement as a number trailed by its unit.

smiles-notation: CC(C)Oc1ccccc1-c1ccccc1-c1nnnn1-c1ccccc1F
experimental-target: human IK (Homo sapiens (Human), UniProt O15554)
measured: 770 nM
//
smiles-notation: COc1ccccc1-c1ccccc1-c1nnnn1-c1ccccc1OC
experimental-target: human IK (Homo sapiens (Human), UniProt O15554)
measured: 1200 nM
//
smiles-notation: Cc1ccccc1-c1ccccc1-c1nnnn1-c1ccccc1F
experimental-target: human IK (Homo sapiens (Human), UniProt O15554)
measured: 510 nM

Parameter requested: IC50. Apply to each item below.
1. COc1ccccc1-c1ccccc1-c1nnnn1-c1ccccc1Cl
2. COCOc1ccccc1-c1ccccc1-c1nnnn1-c1ccccc1F
3. N#Cc1ccccc1-c1ccccc1-c1nnnn1-c1ccccc1F

["540 nM", "190 nM", "110 nM"]

Parameter requested: IC50. Apply to each item below.
1. CSc1ccccc1-c1ccccc1-c1nnnn1-c1ccccc1F
2. COc1ccccc1-c1ccccc1-c1nnnn1-c1ccccc1F
3. Fc1ccccc1-n1nnnc1-c1ccccc1-c1ccccc1OC(F)F
4. Fc1ccccc1-n1nnnc1-c1ccccc1-c1ccccc1OC(F)(F)F
5. NC(=O)COc1ccccc1-c1ccccc1-c1nnnn1-c1ccccc1F
6. CCOc1ccccc1-c1ccccc1-c1nnnn1-c1ccccc1F
7. COC(=O)COc1ccccc1-c1ccccc1-c1nnnn1-c1ccccc1F
8. COc1ccccc1-c1ccccc1-c1nnnn1-c1ccccc1O

1: 460 nM; 2: 110 nM; 3: 290 nM; 4: 1700 nM; 5: 1000 nM; 6: 37 nM; 7: 590 nM; 8: 1200 nM

Parameter requested: IC50. Apply to each item below.
1. Fc1ccccc1-c1ccccc1-c1nnnn1-c1ccccc1Cl
2. N#CCOc1ccccc1-c1ccccc1-c1nnnn1-c1ccccc1F

1. 1000 nM
2. 16 nM

* * *

# experimental-target: human IK (Homo sapiens (Human))
# test-description: Inhibition of IK channels expressed in HEK293 cells, thallium (I) sensitive FLIPR assay
# condition-details: HEK293 cells over-expressing human IK; Tl+-sensitive BTC fluorescence (FLIPR); inhibition of activity induced by Ca2+-ionophore A23187
readout-name: pIC50
One number for each entry, as −log10 of the molar value.

smiles-notation: COc1ccccc1-n1nnnc1-c1ccccc1-c1ccccc1F
experimental-target: human IK (Homo sapiens (Human))
pIC50: 6.11

smiles-notation: O=Cc1ccccc1-c1ccccc1-c1nnnn1-c1ccccc1F
experimental-target: human IK (Homo sapiens (Human))
pIC50: 6.26

smiles-notation: COc1ccccc1-c1ccccc1-c1nnnn1-c1ccccc1OC(F)F
experimental-target: human IK (Homo sapiens (Human))
pIC50: 7.16

smiles-notation: c1ccc(-c2ccccc2-c2nnnn2-c2ccccc2)cc1
experimental-target: human IK (Homo sapiens (Human))
pIC50: 6.05

smiles-notation: Fc1ccccc1-n1nnnc1-c1ccccc1-c1ccccc1Cl
experimental-target: human IK (Homo sapiens (Human))
pIC50: 6.44

Parameter requested: pIC50. Apply to each item below.
1. Nc1ccccc1-c1ccccc1-c1nnnn1-c1ccccc1F
2. Fc1ccccc1-n1nnnc1-c1ccccc1-c1ccccc1OCC1CC1
3. Fc1ccccc1-n1nnnc1-c1ccccc1-c1ccccc1Br
4. CCc1ccccc1-c1ccccc1-c1nnnn1-c1ccccc1F
5. O/N=C/c1ccccc1-c1ccccc1-c1nnnn1-c1ccccc1F
6. FCc1ccccc1-c1ccccc1-c1nnnn1-c1ccccc1F
7. Fc1ccccc1-n1nnnc1-c1ccccc1-c1ccccc1C(F)(F)F

[6.05, 6.15, 6.26, 6.54, 7.24, 7.77, 5.77]

Parameter requested: pIC50. Apply to each item below.
1. Oc1ccccc1-c1ccccc1-c1nnnn1-c1ccccc1F
2. Fc1ccccc1-n1nnnc1-c1ccccc1-c1ccccc1C(F)F
3. FCOc1ccccc1-c1ccccc1-c1nnnn1-c1ccccc1F
4. CN(C)c1ccccc1-c1ccccc1-c1nnnn1-c1ccccc1F
5. Fc1ccccc1-c1ccccc1-c1nnnn1-c1ccccc1OC(F)F
6. COCc1ccccc1-c1ccccc1-c1nnnn1-c1ccccc1F

1. 5.23
2. 6.06
3. 6.52
4. 6.09
5. 5.96
6. 7.24

Parameter requested: pIC50. Apply to each item below.
1. Fc1ccccc1-n1nnnc1-c1ccccc1-c1ccccc1
2. COCCOc1ccccc1-c1ccccc1-c1nnnn1-c1ccccc1F

[6.10, 7.52]
